Measured values drawn from ChEMBL document CHEMBL4229513 for this set.

# assayed.system: Toll-like receptor 1/2 (Homo sapiens, UniProt O60603+Q15399)
# test.name: Antagonist activity at FLAG-tagged human TLR2/TLR1 expressed in HEK293 cells co-expressing pGL3-Elam.luc assessed as inhibition of Pam3CSK4-stimulated NF-kappaB activation at 50 uM preincubated for 1 hr followed by Pam3CSK4 stimulation for 5 hrs by luciferase reporter gene assay relative to control
# Type: cell-based
The source made the active and inactive calls. No cut-off for these calls is given here.
assay.endpoint: inhibition

Consider the following illustrative entries.
[
  {
    "substance": "H-VVSDVFGFP-OH",
    "assayed.system": "Toll-like receptor 1/2 (Homo sapiens, UniProt O60603+Q15399)",
    "inhibition": "Active"
  },
  {
    "substance": "H-RLHIPRFYL-OH",
    "assayed.system": "Toll-like receptor 1/2 (Homo sapiens, UniProt O60603+Q15399)",
    "inhibition": "81.9%"
  },
  {
    "substance": "H-TIRRLHIPR-OH",
    "assayed.system": "Toll-like receptor 1/2 (Homo sapiens, UniProt O60603+Q15399)",
    "inhibition": "84.1%"
  },
  {
    "substance": "H-SENLMVEEYLK-OH",
    "assayed.system": "Toll-like receptor 1/2 (Homo sapiens, UniProt O60603+Q15399)",
    "inhibition": "56%"
  },
  {
    "substance": "H-HIPRFYLFY-OH",
    "assayed.system": "Toll-like receptor 1/2 (Homo sapiens, UniProt O60603+Q15399)",
    "inhibition": "56%"
  },
  {
    "substance": "H-ENLMVEEY-OH",
    "assayed.system": "Toll-like receptor 1/2 (Homo sapiens, UniProt O60603+Q15399)",
    "inhibition": "66%"
  },
  {
    "substance": "H-LHIPRFYLFYD-OH",
    "assayed.system": "Toll-like receptor 1/2 (Homo sapiens, UniProt O60603+Q15399)",
    "inhibition": "56%"
  },
  {
    "substance": "H-ENSKVFLVPC-OH",
    "assayed.system": "Toll-like receptor 1/2 (Homo sapiens, UniProt O60603+Q15399)",
    "inhibition": "Active"
  }
]

# context switch: different substance, same inhibition
Prompt line: inhibition for H-VETLTIRRL-OH ?
Response line: 86%
